Reported one-hybrid fitness for binding parS DNA values follow for various variants
B1: Caulobacter ParB omega fusion; a variant is named by its letters at X, in order, B8GW30 (parent)
chain: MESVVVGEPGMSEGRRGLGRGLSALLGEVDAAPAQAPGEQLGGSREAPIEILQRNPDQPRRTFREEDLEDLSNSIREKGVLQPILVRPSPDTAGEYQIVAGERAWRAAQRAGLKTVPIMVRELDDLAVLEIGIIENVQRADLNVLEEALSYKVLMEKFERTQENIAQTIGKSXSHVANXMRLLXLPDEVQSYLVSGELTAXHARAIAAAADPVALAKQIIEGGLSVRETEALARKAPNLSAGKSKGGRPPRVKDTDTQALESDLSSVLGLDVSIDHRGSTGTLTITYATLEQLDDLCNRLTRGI

Variants of: B1
Experiment: one-hybrid fitness for binding parS DNA (scaled: cognate 1, non-cognate 0); higher = stronger binding
Settings: with parS DNA site
The full ranking holds about 81,000 sequences; the median of “one-hybrid fitness for binding parS DNA” is about -0.17, and the highest 2% start at about 0.51. Only a selection was taken, and the highest values are over-represented in it overall.

Completed entries (count: 2):
# VARIANT DESCRIPTION, one-hybrid fitness for binding parS DNA
data = [
    ("PQTA", "≤ 0.2"),
    ("CISV", "≤ 0.2"),
]

Here's the next entry for you.
Return one-hybrid fitness for binding parS DNA for the following variant: `TPNI`
≤ 0.2

Numbers sourced from a collection of fitness landscapes (doi:10.1016/j.celrep.2020.107928).
